Ref: ChEMBL document CHEMBL4257576

Assign half-life to each entry below.
# assay_details: Half life in ICR (CD-1) mouse plasma by HPLC analysis
# Format: ADME, cell-free

> print(dat)
                                smiles.data  recorded.measurement
1  Cc1cc(C(=O)N[C@@H](Cc2ccc(F)cc2)C(=O)N[C@@H](C[C@@H]2CCCNC2=O)[C@H]2OC(=O)N(C(C)C)C2=N)no1                 > 2 h
2  CCN(C)C(=O)O[C@@H](C#N)[C@H](C[C@@H]1CCCNC1=O)NC(=O)[C@H](Cc1ccc(F)cc1)NC(=O)c1cc(C)on1                 > 2 h
3  CCCN1C(=N)[C@@H]([C@H](C[C@@H]2CCCNC2=O)NC(=O)[C@H](Cc2ccc(F)cc2)NC(=O)c2cc(C)on2)OC1=O                 > 2 h

Now let's try a different one.
Tell me measured half-life for Cc1cc(C(=O)N[C@@H](Cc2ccc(F)cc2)C(=O)N[C@@H](C[C@@H]2CCCNC2=O)[C@H](C#N)OC(=O)N2CCOCC2)no1 please.
> 2 h
